Below, each entry is listed alongside its reported melting point.

// below: answered compounds
compound=NC(=O)c1ccc2c(c1)nc(-c1ccc(OCc3ccccc3)cc1)n2C1CCCC1 recorded_value="232 to 233 °C"
compound=CC(=O)N(N(CCCl)S(C)(=O)=O)S(C)(=O)=O recorded_value="148 to 149 °C"
compound=COc1cn(-c2cccc(-c3cccnc3)c2F)nc(-c2ccnn2-c2ccccc2)c1=O recorded_value="147 to 153 °C"
compound=COc1cc(-c2cc(C(F)(F)F)nn2-c2ccc(S(C)(=O)=O)cc2)ccc1-c1cocn1 recorded_value="171 to 173 °C"
compound=Cc1ccc(S(=O)(=O)N2CCC[C@H]2C(=O)N[C@@H](Cc2ccccc2)C(=O)NOCc2ccccc2)cc1 recorded_value="127 to 130 °C"
compound="CCc1nc2c(C)cc(C)nc2n1-c1ccc(CC(C)OC(=O)NS(=O)(=O)c2ccc(C)cc2)cc1 (centres undefined)" recorded_value="108 °C"
compound=COc1ccc(OC)c2c1Cc1c([nH]cnc1=O)N2 recorded_value="> 300 °C"
compound=CC(=O)Nc1nc(CCc2ccc(CCNC(=N)N)s2)cs1 recorded_value="122 to 123 °C"
compound=Oc1cccc(Oc2ccc(Cl)nn2)c1 recorded_value="185 to 187 °C"
compound=CCCCCCCNC(=O)Nc1c(F)cc(F)cc1CCc1ccc(CC(C)(C)C)cc1 recorded_value="105 to 107 °C"

Look up and state reported melting point for O=C(c1ccccc1)c1nc(-c2ccncc2)cs1 135 to 136 °C

Look up and state reported melting point for O=S(=O)(Oc1cc(I)c(I)cc1OS(=O)(=O)C(F)(F)F)C(F)(F)F 46.5 to 47.7 °C

Look up and state reported melting point for N#Cc1cccc(CSCCNC(=O)c2c(Cl)cccc2Cl)c1 123 to 125 °C

Look up and state reported melting point for CC(=O)OCC(=O)C1(OC(C)=O)CCC2C3C=C(C)C4=CC(=O)CCC4(C)C3CCC21C (centres undefined) 213 to 215 °C

Look up and state reported melting point for CCCOC(=Nc1sccc1C#N)OCCC 65 to 67 °C

Look up and state reported melting point for CCOC(=O)c1c(N=Cc2cccs2)sc(N=Cc2ccc([N+](=O)[O-])s2)c1C(=O)OCC 220 to 222 °C

Look up and state reported melting point for COC(=O)c1cc(F)c2ncc(C(=O)NCc3ccc(Cl)cc3)c(O)c2c1 288 to 290 °C

Look up and state reported melting point for CC(=O)OC1CSC(Oc2cnc(-c3ccncc3)c(Cl)c2)C(OC(C)=O)C1OC(C)=O (centres undefined) 153 °C

Look up and state reported melting point for CCCn1c(=O)c2c(NC)n(C(=O)OC)nc2n(Cc2cccc(Cl)c2)c1=O 164 to 166 °C
